assayProtocol: in vitro
cond: human, HEK293T cells
Description: Cytotoxicity against HEK293T cells assessed as cell viability at 1.9 uM by CellTiter-Glo assay relative to control
Non-standard residues stand in square brackets, D forms with d. Residues, ends and D or L forms follow the SMILES beside them. *: point of attachment. X1 = O=C(OCCCS*)Oc1ccc2nc(C3=N[C@@H](C(=O)O)CS3)sc2c1; Mpa = O=C(O)CCS
testReadout: viability at 1.9 µM (%)
Answers are plain numbers, in %.

Hi, could you look up viability at 1.9 µM for each item in my list?
1. CC(C)C[C@H](NC(=O)CCSSCCCOC(=O)Oc1ccc2nc(C3=N[C@@H](C(=O)O)CS3)sc2c1)C(=O)N[C@@H](CCCCN)C(=O)N[C@@H](CCCNC(=N)N)C(=O)N[C@@H](Cc1c[nH]c2ccccc12)C(=O)N[C@@H](CCCCN)C(=O)N[C@@H](CC(C)C)C(=O)N[C@@H](Cc1ccccc1)C(=O)N[C@@H](CC(N)=O)C(=O)N[C@@H](CCCCN)C(=O)N[C@@H](CCC(N)=O)C(N)=O ([Mpa](X1)LKRWKLFNKQ-NH2)
2. CC(C)C[C@H](NC(=O)[C@H](CCCCN)NC(=O)[C@H](Cc1c[nH]c2ccccc12)NC(=O)CCSSCCCOC(=O)Oc1ccc2nc(C3=N[C@@H](C(=O)O)CS3)sc2c1)C(=O)N[C@@H](Cc1ccccc1)C(=O)N[C@@H](CC(N)=O)C(=O)N[C@@H](CCCCN)C(=O)N[C@@H](CCC(N)=O)C(=O)N[C@@H](CCC(=O)O)C(=O)N[C@@H](Cc1c[nH]c2ccccc12)C(=O)N[C@H](C(N)=O)[C@@H](C)O ([Mpa](X1)WKLFNKQEWT-NH2)

94.2
100
